# SYSTEM: HIF-2α HIS TAG-PASB Domain (Homo sapiens)
# Construct: 100 nM HIF-2α HIS TAG-PASB Domain
# Sequence (Q99814 240-350 limits assumed): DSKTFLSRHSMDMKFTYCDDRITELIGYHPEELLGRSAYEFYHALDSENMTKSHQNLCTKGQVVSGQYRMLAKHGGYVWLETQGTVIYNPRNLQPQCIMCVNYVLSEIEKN
# PROTOCOL_TEXT: HIF-2α Scintillation Proximity Assay (SPA)
# Format: binding
# CONDITION_LABEL: 150 nM Compound 211 probe, 100 nM HIF-2α HIS TAG-PASB Domain; read-out: SPA IC50
pIC50: −log10 of the molar value.
Class yes: pIC50 at least 7. Class no: pIC50 below 7.

Task item: In plain terms: is recorded pIC50 at least 7 for Cc1cc(C#N)cc(Oc2ccc3c(c2C(F)F)C(=O)C(F)(F)S3(=O)=O)c1 [Compound 155] ?
Reply: no

Task item: In plain terms: is recorded pIC50 at least 7 for Cc1cncc(Oc2ccc(S(C)(=O)=O)c3c2CC(F)(F)[C@H]3O)n1 [Compound 11] ?
Reply: yes

Task item: In plain terms: is recorded pIC50 at least 7 for NC1c2c(ccc(Oc3cc(F)cc(F)c3)c2C(F)F)S(=O)(=O)C1F (centres unmarked) [Compound 130] ?
Reply: no

Task item: In plain terms: is recorded pIC50 at least 7 for N#CN=S1(=O)c2ccc(Oc3cc(F)cc(F)c3)c(C(F)F)c2C(O)C1(F)F (centres unmarked) [Compound 161] ?
Reply: yes

Task item: In plain terms: is recorded pIC50 at least 7 for Cc1cncc(Oc2ccc3c(c2Br)[C@@H](O)C(F)(F)S3(=O)=O)c1 [Compound 192] ?
Reply: no

Task item: In plain terms: is recorded pIC50 at least 7 for N#Cc1cncc(Oc2ccc(S(N)(=O)=O)c3c2CC(F)(F)[C@H]3O)c1 [Compound 25] ?
Reply: no

Task item: In plain terms: is recorded pIC50 at least 7 for CC1(O)c2c(ccc(Oc3cc(F)cc(C#N)c3)c2C(F)F)S(=O)(=O)C1(F)F (centres unmarked) [Compound 206] ?
Reply: no

Task item: In plain terms: is recorded pIC50 at least 7 for CS(=O)(=O)c1ccc(Oc2cncc(F)c2)c2c1[C@H](O)C(F)(F)[C@@H]2F [Compound 93] ?
Reply: yes

Task item: In plain terms: is recorded pIC50 at least 7 for O=S1(=O)c2ccc(Oc3cccc4cn[nH]c34)c(C(F)F)c2C(O)C1(F)F (centres unmarked) [Compound 205] ?
Reply: no

Task item: In plain terms: is recorded pIC50 at least 7 for CS(=O)(=O)c1ccc(Oc2cncc(Cl)c2)c2c1[C@H](O)C(F)(F)[C@@H]2F [Compound 95] ?
Reply: yes

Task item: In plain terms: is recorded pIC50 at least 7 for COc1cc(F)cc(Oc2ccc3c(c2Br)[C@@H](O)C(F)(F)S3(=O)=O)c1 [Compound 190] ?
Reply: yes

Task item: In plain terms: is recorded pIC50 at least 7 for N#Cc1cc(F)cc(Oc2ccc3c(c2Br)[C@@H](O)CS3(=O)=O)c1 [Compound 179] ?
Reply: no

Task item: In plain terms: is recorded pIC50 at least 7 for O=S(=O)(c1ccc(Oc2ccc3[nH]ncc3c2)c2c1C(O)C(F)(F)C2)C(F)(F)F (centres unmarked) [Compound 19] ?
Reply: no

Task item: In plain terms: is recorded pIC50 at least 7 for CS(=O)(=O)c1ccc(Oc2cc(F)cc(C#N)c2)c2c1[C@H](O)[C@H](F)[C@@H]2O [Compound 60] ?
Reply: no

Task item: In plain terms: is recorded pIC50 at least 7 for N#Cc1cc(F)cc(Oc2ccc(S(N)(=O)=O)c3c2[C@@H](O)C(F)(F)[C@H]3O)c1 [Compound 101] ?
Reply: no

Task item: In plain terms: is recorded pIC50 at least 7 for CS(=O)(=O)c1ccc(Oc2cc(F)cc(C#N)c2)c2c1[C@H](O)C(F)(F)[C@H]2F [Compound 57] ?
Reply: no
